Target: GST:PK53 (Trypanosoma brucei, UniProt Q582J2, E440D)
Details: ATP at its Km; peptide KKLNRTLSFAEPG; Tris-HCl pH 7.0, 1 mM MnCl2, 1% DMSO
Experimental Endpoint: pIC50
Worth noting: pIC50 values are minus log10 of concentrations stated in mol/L.

Ask | Any idea what pIC50 was measured for CN[C@@H]1C[C@H]2O[C@@](C)([C@@H]1OC)n1c3ccccc3c3c4c(c5c6ccccc6n2c5c31)C(=O)NC4 [staurosporine] ?
Reply | 8.34
